Each recorded value in this set is attributed to patent US20240209086A1.

Exercise: for every item that follows, state its recorded IFNy Concentration pg/ml, Day 9, PB.
Target: canine CD3 on canine T cells (canine PBMC) (canine, UniProt P27597 22-202)
Sequence (P27597 22-202 limits assumed, chain 1 of 3): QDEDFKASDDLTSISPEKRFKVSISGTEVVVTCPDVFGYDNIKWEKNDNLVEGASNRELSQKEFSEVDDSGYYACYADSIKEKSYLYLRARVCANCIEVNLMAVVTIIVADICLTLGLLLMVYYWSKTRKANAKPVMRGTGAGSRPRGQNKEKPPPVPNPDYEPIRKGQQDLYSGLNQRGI
Sequence (chain, as listed by the source limits assumed, chain 2 of 3): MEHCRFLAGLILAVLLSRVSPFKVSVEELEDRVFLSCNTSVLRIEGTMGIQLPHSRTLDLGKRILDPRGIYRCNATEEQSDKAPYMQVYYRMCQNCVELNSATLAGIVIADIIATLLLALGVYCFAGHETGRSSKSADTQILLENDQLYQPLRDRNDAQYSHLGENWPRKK
Sequence (chain, as listed by the source limits assumed, chain 3 of 3): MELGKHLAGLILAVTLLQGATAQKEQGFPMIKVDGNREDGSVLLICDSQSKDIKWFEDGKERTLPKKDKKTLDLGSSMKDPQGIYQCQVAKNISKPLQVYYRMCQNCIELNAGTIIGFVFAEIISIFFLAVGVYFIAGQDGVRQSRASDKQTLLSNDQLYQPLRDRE
Assay: cell-based or functional assay
One number for each entry, in pg/mL.

Solved cases below.
1) PMX200 (monospecific anti-canine CD3, canine IgG-B effector function deficient Fc) (antibody, V domains shown) VH: ELTLQESGPGLVKPSQTLSLTCIVSGGSVTSSYYWNWIRQSPGRGLEWMGYWTGNTNYNPALQGRIFITADTAKNQFSLQLRSMTTEDTAVYYCARGGYGYHYGMDYWGHGTSVFVSS VL: SYVLTQLPSKSVALKQPAHITCGGDNIGSKRVHWYQQKLGQAPALIISFDNSRPTGIPERFSGANSGNTATLTISGALAEDEADYYCQVWDSTAKASIFGGGTHLTVL ... 822
2) PMX177 (monospecific anti-canine CD3, canine IgG-B effector function deficient Fc) (antibody, V domains shown) VH: EVTLQESGPGLVKPSQTLSLTCVVSGGSVTSSFYWNWIRQRPGRGLEWMGYWTGSTNYNPAFQGRISITADTAKNQFSLHLGSMTTDDTAMYYCAREEGSWGRVYFDYWGQGTLVTVSS VL: SYVLTQLPSKNVTLKQPAHITCGGDNIGSKSVHWYQQKLGQAPVLIIYYDSSRPTGIPERFSGANSGNTATLTISGALAEDEADYYCQVWDSSTKTWVFGEGTQLTVL ... 2210
3) PMX184 (monospecific anti-canine CD3, canine IgG-B effector function deficient Fc) (antibody, V domains shown) VH: ELTLQESGPGLVKPSQTLSLTCGVSGGSVTRSHYWNWVRQRPGRGLEWMGYWTGSTNYNPAFQGRISITADTAKNQFSLQLRSMTTEDTAVYFCARETTIPTFFFDYWGQGTLVTVSS VL: SYVLTQLPSKNVTLKQPAHITCGGDNIGSKSVHWYQQKLGQAPVLIIYYDSSRPTGIPERFSGANSGNTATLTISGALAEDEADYYCQVWDSGAKAWVFGEGTQLTVL ... 3290

Documented IFNy Concentration pg/ml, Day 9, PB of PMX198 (monospecific anti-canine CD3, canine IgG-B effector function deficient Fc) (antibody, V domains shown) VH: EFTLQESGPGLVKPSQTLSLTCIVSGGSVTSSYYWNWIRQRPGRGLEWMGYWTGSTNYNPAFQGRISITPDTAKNQFSLQLSSMTTEDTAVYYCAREGGSSLQAFGNWGQGTLVTVSS VL: SYVLTQLPSKNVTLKQPAHITCGGDNIGRKSVHWYQQKLGQAPILIIYYDSSRPTGIPERFSGANSGNTATLTISGALAEDEADYYCQVWDSSAKASVFGGGTHLTVL : 2790
